molecular target: T1, human IL-6 (human, UniProt P05231 30-212); assay: SPR Biacore, purified Ab on Protein A chip, 37 C
T1 construct: IL-6 flowed over captured antibodies
T1 sequence (P05231 30-212 limits assumed): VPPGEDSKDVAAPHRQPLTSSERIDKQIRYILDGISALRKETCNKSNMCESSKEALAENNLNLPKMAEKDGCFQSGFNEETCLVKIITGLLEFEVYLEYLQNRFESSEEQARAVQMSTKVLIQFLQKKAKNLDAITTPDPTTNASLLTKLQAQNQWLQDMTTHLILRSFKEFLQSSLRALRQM
Quantity Kind: kon (M⁻¹ s⁻¹)
Reply numerically in M⁻¹ s⁻¹, unit not repeated.

anti-IL-6 antibody, heavy chain T63E, G66D / light chain M32L, M50D, N52S, M88Q (antibody, IgG1, V domains shown, Full IgG1 (Expi293); VL = variant III) VH: EVQLVESGGGLVQPGGSLRLSCAASGFTFSPFAMSWVRQAPGKGLEWVAKISPGGSWTYYSDEVTDRFTFSLDTSKSTAYLQMNSLRAEDTAVYYCARQLWGYYALDIWGQGTLVTVSS VL: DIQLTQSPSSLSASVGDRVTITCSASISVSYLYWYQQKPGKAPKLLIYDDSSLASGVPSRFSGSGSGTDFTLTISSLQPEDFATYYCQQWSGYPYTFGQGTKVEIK	1.65e+06
anti-IL-6 antibody, heavy chain T65Q, G66D / light chain M32L, M50D, N52S, M88Q (antibody, IgG1, V domains shown, Full IgG1 (Expi293); VL = variant III) VH: EVQLVESGGGLVQPGGSLRLSCAASGFTFSPFAMSWVRQAPGKGLEWVAKISPGGSWTYYSDTVQDRFTFSLDTSKSTAYLQMNSLRAEDTAVYYCARQLWGYYALDIWGQGTLVTVSS VL: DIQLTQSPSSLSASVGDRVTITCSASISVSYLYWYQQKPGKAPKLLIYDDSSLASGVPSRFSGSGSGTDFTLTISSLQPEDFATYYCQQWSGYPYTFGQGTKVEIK	1.82e+06
anti-IL-6 antibody, heavy chain T63Q, G66D / light chain M32L, M50D, N52S, M88Q (antibody, IgG1, V domains shown, Full IgG1 (Expi293); VL = variant III) VH: EVQLVESGGGLVQPGGSLRLSCAASGFTFSPFAMSWVRQAPGKGLEWVAKISPGGSWTYYSDQVTDRFTFSLDTSKSTAYLQMNSLRAEDTAVYYCARQLWGYYALDIWGQGTLVTVSS VL: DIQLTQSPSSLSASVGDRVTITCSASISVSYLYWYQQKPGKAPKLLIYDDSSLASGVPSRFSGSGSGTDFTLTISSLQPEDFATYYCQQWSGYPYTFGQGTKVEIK	1.69e+06
anti-IL-6 antibody, heavy chain G66D / light chain M32L, M50D, N52S, M88Q (antibody, IgG1, V domains shown, Full IgG1 (Expi293); VL = variant III) VH: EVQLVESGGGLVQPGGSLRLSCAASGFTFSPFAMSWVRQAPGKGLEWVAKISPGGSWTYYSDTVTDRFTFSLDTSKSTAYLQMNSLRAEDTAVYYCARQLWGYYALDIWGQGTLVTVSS VL: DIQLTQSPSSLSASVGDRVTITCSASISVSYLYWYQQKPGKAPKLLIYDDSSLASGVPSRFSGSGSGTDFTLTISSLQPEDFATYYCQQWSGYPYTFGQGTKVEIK	1.69e+06
anti-IL-6 antibody, heavy chain WT / light chain M32L, M50D, N52S, M88Q (antibody, IgG1, V domains shown, Full IgG1 (Expi293); VL = variant III) VH: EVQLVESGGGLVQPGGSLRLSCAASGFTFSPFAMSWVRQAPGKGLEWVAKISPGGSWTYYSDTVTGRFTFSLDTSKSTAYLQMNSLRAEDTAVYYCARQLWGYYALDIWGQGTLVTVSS VL: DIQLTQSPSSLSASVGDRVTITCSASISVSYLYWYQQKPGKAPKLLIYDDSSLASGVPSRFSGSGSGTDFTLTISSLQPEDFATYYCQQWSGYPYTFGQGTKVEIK	1.12e+06

Consider anti-IL-6 antibody, heavy chain S35H, G66D / light chain M32L, M50D, N52S, M88Q (antibody, IgG1, V domains shown, Full IgG1 (Expi293); VL = variant III) VH: EVQLVESGGGLVQPGGSLRLSCAASGFTFSPFAMHWVRQAPGKGLEWVAKISPGGSWTYYSDTVTDRFTFSLDTSKSTAYLQMNSLRAEDTAVYYCARQLWGYYALDIWGQGTLVTVSS VL: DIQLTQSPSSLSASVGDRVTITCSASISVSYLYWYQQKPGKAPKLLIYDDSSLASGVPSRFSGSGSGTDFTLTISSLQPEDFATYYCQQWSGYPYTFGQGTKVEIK . Its measured kon is 1.2e+06

Consider anti-IL-6 antibody, heavy chain T63K, G66D / light chain M32L, M50D, N52S, M88Q (antibody, IgG1, V domains shown, Full IgG1 (Expi293); VL = variant III) VH: EVQLVESGGGLVQPGGSLRLSCAASGFTFSPFAMSWVRQAPGKGLEWVAKISPGGSWTYYSDKVTDRFTFSLDTSKSTAYLQMNSLRAEDTAVYYCARQLWGYYALDIWGQGTLVTVSS VL: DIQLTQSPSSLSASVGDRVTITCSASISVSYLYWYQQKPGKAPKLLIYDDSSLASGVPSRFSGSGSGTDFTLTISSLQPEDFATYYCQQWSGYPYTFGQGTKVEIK . Its measured kon is 1.59e+06

Values from patent US20240209076A1
